B1: LINE1-full (parent)
chain: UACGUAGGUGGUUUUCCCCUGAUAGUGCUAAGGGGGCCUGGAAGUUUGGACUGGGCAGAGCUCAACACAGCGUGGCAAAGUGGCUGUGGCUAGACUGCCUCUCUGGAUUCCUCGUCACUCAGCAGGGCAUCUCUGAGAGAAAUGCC

variants of: B1; test: self-cleavage, relative activity (ratio to wild type); higher = more cleavage; in vitro, sequencing; the parent is a self-cleaving ribozyme
Measure Name: self-cleavage

Sequence Change | Test Result
A77G U102A | 2.63
A77G C128G | 1.86
A50G A57U | 0.14
U9C C116G | 1.21
C3U U109A | 0.93
U14C A67U | 0
U5A A94G | 0.44
A94G C110G | 0.22
G25U U119C | 1.74
U26A A65G | 0.16
U14G A67U | 0.39
G83A C90U | 0.06
G32C A141G | 1.99
A43G G89U | 0.04
C131U A142G | 1.61
G74A A124C | 1.58
G82A C99A | 0.78
A31U U45A | 0.9
G54A U119A | 0.55
A140G U143A | 0.79
A50U A140U | 0.92
G54A U73C | 0.67

// data source = the RNAGym collection of RNA variant scans (doi:10.7554/elife.90254)
